Hello, the source for this data is the METLIN SMRT retention time set (Domingo-Almenara et al. 2019), in case you need it.

MEASUREMENT_PROTOCOL: gradient 5% acetonitrile 3 min, to 50% in 2 min, to 85% in 15 min, held 3 min, 100 µL/min
EXPERIMENTAL_CONDITIONS: column: Zorbax Extend-C18 2.1 x 50 mm; eluents: water / acetonitrile, 0.1% formic acid
RP-LC retention time by entry:
State the answer as a number, implicitly in s.

Please report the recorded RP-LC retention time for `N#Cc1cccc(NC(=O)CN2CCc3[nH]c4c(F)c(Cl)ccc4c(=O)c3C2)c1` .
913

Please report the recorded RP-LC retention time for `COc1cc(NC(=O)N2CCC(C)(C(=O)NCc3ccc(F)cc3)CC2)cc(OC)c1OC` .
737

Please report the recorded RP-LC retention time for C[C@]12CC[C@@H]3c4ccc(O)cc4C[C@@H](CCCCCCCCCS(=O)CCCC(F)(F)C(F)(F)F)[C@H]3[C@@H]1CC[C@@H]2O (some centres undefined) .
1250

====

MEASUREMENT_PROTOCOL: gradient 5% acetonitrile 3 min, to 50% in 2 min, to 85% in 15 min, held 3 min, 100 µL/min
EXPERIMENTAL_CONDITIONS: column: Zorbax Extend-C18 2.1 x 50 mm; eluents: water / acetonitrile, 0.1% formic acid
EXPERIMENTAL_ENDPOINT: RP-LC retention time (s)
State the answer as a number, implicitly in s.

Here are 2 compounds together with their reported answers.
[
  {
    "COMPOUND": "COc1ccc(OC)c(S(=O)(=O)N2CCCC(C)(C(=O)NCc3ccc(F)cc3)C2)c1 (stereo not drawn)",
    "RP-LC retention time, s": 916
  },
  {
    "COMPOUND": "Cc1oc(-c2[nH]ncc2C(=O)N2CCCC2)cc1S(=O)(=O)N1CCN(CC(C)C)CC1",
    "RP-LC retention time, s": 580
  }
]

Please report the recorded RP-LC retention time for `N#Cc1cccc(Cn2cc(S(=O)(=O)N3CCCCC3)ccc2=O)c1` .
842

Please report the recorded RP-LC retention time for `Cc1sc(-c2noc(C(C)C)n2)cc1S(=O)(=O)N1CCC(C(=O)N(C)Cc2ccco2)CC1` .
1070

====

MEASUREMENT_PROTOCOL: gradient 5% acetonitrile 3 min, to 50% in 2 min, to 85% in 15 min, held 3 min, 100 µL/min
EXPERIMENTAL_CONDITIONS: column: Zorbax Extend-C18 2.1 x 50 mm; eluents: water / acetonitrile, 0.1% formic acid
RP-LC retention time by entry:
State the answer as a number, implicitly in s.

Here are 5 compounds together with their reported answers.
[
  {
    "COMPOUND": "CCN1CCCC1CNC(=O)C1CCN(S(=O)(=O)c2ccc3c(c2)sc(=O)n3C)CC1 (centres undefined)",
    "RP-LC retention time [s]": 794
  },
  {
    "COMPOUND": "CCOc1ccccc1NC(=O)N1C[C@@H](F)C[C@H]1C(=O)N1CCc2ccccc2C1",
    "RP-LC retention time [s]": 819
  },
  {
    "COMPOUND": "Fc1ccc(-c2nc3cnccn3c2Nc2ccc3c(c2)OCCO3)cc1",
    "RP-LC retention time [s]": 818
  },
  {
    "COMPOUND": "CC(C)n1cnc2cc(CNC(=O)c3cc(F)ccc3Cl)ccc21",
    "RP-LC retention time [s]": 638
  },
  {
    "COMPOUND": "COc1ccc(NC(=O)N2CCN(Cc3nc4ccc(Cl)cc4o3)CC2)cc1",
    "RP-LC retention time [s]": 713
  }
]

Please report the recorded RP-LC retention time for `COc1cc(OC)c(NC(=O)Nc2c(-c3ccccc3)nc3ccccn23)cc1Cl` .
682

Please report the recorded RP-LC retention time for `Cn1ncc(NC(=O)c2cccc(Cl)c2)c(N2CCOCC2)c1=O` .
777

Please report the recorded RP-LC retention time for `CCOc1ccc2nc(NC(=O)C3CCN(S(=O)(=O)c4cn(C(C)C)cn4)CC3)sc2c1` .
829

Please report the recorded RP-LC retention time for `O=C(Cc1nnc(-c2ccccc2)o1)NC1CCCCC1` .
787
